Reported % max reversal values for the following molecules.
- Test system: neuromuscular block, induced by the muscle relaxant rocuronium bromide (Roc)
- method: Reversal of neuromuscular blockade in anaesthetized guinea pigs in vivo
- stated-conditions: anaesthetized guinea pigs; rocuronium bromide steady-state block; maximum reversal
The reply should be a number in %, with the unit left off.

molecule	measurement-label	endpoint-result
O=C([O-])c1ccc(SCC2OC3OC4C(CO)OC(OC5C(CO)OC(OC6C(CO)OC(OC7C(CO)OC(OC8C(CO)OC(OC9C(CO)OC(OC%10C(CO)OC(OC2C(O)C3O)C(O)C%10O)C(O)C9O)C(O)C8O)C(O)C7O)C(O)C6O)C(O)C5O)C(O)C4O)cc1.[Na+] (stereo not drawn) [example 1]	% max reversal	102
OCCOCCSCC1OC2OC3C(CSCCOCCO)OC(OC4C(CSCCOCCO)OC(OC5C(CSCCOCCO)OC(OC6C(CSCCOCCO)OC(OC7C(CSCCOCCO)OC(OC8C(CSCCOCCO)OC(OC9C(CSCCOCCO)OC(OC1C(O)C2O)C(O)C9O)C(O)C8O)C(O)C7O)C(O)C6O)C(O)C5O)C(O)C4O)C(O)C3O (stereo not drawn) [example 11]	% max reversal	92

Now for the molecule whose % max reversal we want.
Q: Form entry - test system: neuromuscular block, induced by the muscle relaxant rocuronium bromide (Roc); read-out: % max reversal; molecule: CNC(=O)CSCC1OC2OC3C(CSCC(=O)NC)OC(OC4C(CSCC(=O)NC)OC(OC5C(CSCC(=O)NC)OC(OC6C(CSCC(=O)NC)OC(OC7C(CSCC(=O)NC)OC(OC8C(CSCC(=O)NC)OC(OC9C(CSCC(=O)NC)OC(OC1C(O)C2O)C(O)C9O)C(O)C8O)C(O)C7O)C(O)C6O)C(O)C5O)C(O)C4O)C(O)C3O (stereo not drawn) [example 14]
Ans: 102

###

- Test system: neuromuscular block, induced by the muscle relaxant rocuronium bromide (Roc)
- method: Reversal of neuromuscular blockade in anaesthetized guinea pigs in vivo
- stated-conditions: anaesthetized guinea pigs; rocuronium bromide steady-state block; maximum reversal
measurement-label: % max reversal (%)
# value in %; strip the unit string

Q: % max reversal for O=C([O-])c1ccccc1SC[C@H]1O[C@@H]2O[C@H]3[C@H](O)[C@@H](O)[C@@H](O[C@H]4[C@H](O)[C@@H](O)[C@@H](O[C@H]5[C@H](O)[C@@H](O)[C@@H](O[C@H]6[C@H](O)[C@@H](O)[C@@H](O[C@H]7[C@H](O)[C@@H](O)[C@@H](O[C@H]8[C@H](O)[C@@H](O)[C@@H](O[C@H]9[C@H](O)[C@@H](O)[C@@H](O[C@H]1[C@H](O)[C@H]2O)O[C@@H]9CO)O[C@@H]8CO)O[C@@H]7CO)O[C@@H]6CO)O[C@@H]5CO)O[C@@H]4CO)O[C@@H]3CO.[Na+] [example 2] ?
Ans: 93

###

- System: neuromuscular block, induced by the muscle relaxant rocuronium bromide (Roc)
- method: Reversal of neuromuscular blockade in anaesthetized guinea pigs in vivo
- stated-conditions: anaesthetized guinea pigs; rocuronium bromide steady-state block; maximum reversal
measurement-label: % max reversal (%)
# output: bare number, implied unit %

compound	endpoint-result
O=S(=O)([O-])CCSCC1OC2OC3C(CSCCS(=O)(=O)[O-])OC(OC4C(CSCCS(=O)(=O)[O-])OC(OC5C(CSCCS(=O)(=O)[O-])OC(OC6C(CSCCS(=O)(=O)[O-])OC(OC7C(CSCCS(=O)(=O)[O-])OC(OC8C(CSCCS(=O)(=O)[O-])OC(OC9C(CSCCS(=O)(=O)[O-])OC(OC1C(O)C2O)C(O)C9O)C(O)C8O)C(O)C7O)C(O)C6O)C(O)C5O)C(O)C4O)C(O)C3O.[Na+].[Na+].[Na+].[Na+].[Na+].[Na+].[Na+].[Na+] (centres unmarked) [example 17]	106

Q: // lookup % max reversal for OC1C2OC(CSCCCc3nnn[n-]3)C(OC3OC(CSCCCc4nnn[n-]4)C(OC4OC(CSCCCc5nnn[n-]5)C(OC5OC(CSCCCc6nnn[n-]6)C(OC6OC(CSCCCc7nnn[n-]7)C(OC7OC(CSCCCc8nnn[n-]8)C(OC8OC(CSCCCc9nnn[n-]9)C(OC9OC(CSCCCc%10nnn[n-]%10)C(O2)C(O)C9O)C(O)C8O)C(O)C7O)C(O)C6O)C(O)C5O)C(O)C4O)C(O)C3O)C1O.[Na+].[Na+].[Na+].[Na+].[Na+].[Na+].[Na+].[Na+] (centres unmarked) [example 19]
Ans: 109
